Origin of values: patent US20160002273A1

Biological target: SIRT2 (Homo sapiens, UniProt Q8IXJ6)
Sequence (Q8IXJ6 whole entry): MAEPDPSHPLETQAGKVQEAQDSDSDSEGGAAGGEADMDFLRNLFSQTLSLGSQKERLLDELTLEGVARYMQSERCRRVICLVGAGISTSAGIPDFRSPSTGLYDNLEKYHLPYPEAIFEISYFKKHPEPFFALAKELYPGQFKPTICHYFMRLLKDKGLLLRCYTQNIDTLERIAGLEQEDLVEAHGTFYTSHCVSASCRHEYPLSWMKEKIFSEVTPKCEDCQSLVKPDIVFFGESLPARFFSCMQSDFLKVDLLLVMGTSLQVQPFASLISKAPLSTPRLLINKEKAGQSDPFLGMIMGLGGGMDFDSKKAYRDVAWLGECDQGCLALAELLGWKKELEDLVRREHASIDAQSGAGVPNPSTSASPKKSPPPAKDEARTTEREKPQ
Experiment: SIRT2 deacetylation of Trp 5-mer peptide, OAADPr mass spec assay
Type: biochemical
Design: His-SIRT2(1-389)
Conditions: Trp 5-mer peptide; class symbols; read-out: Trp SIRT2_IC50
Experimental endpoint: IC50

(Q) Request the reported IC50 associated with Cc1nc(N2CCC(CN3CCCC3)CC2)c2sc(C(N)=O)cc2n1 [Compound 147]
(A) 1000 to 10000 nM

(Q) Request the reported IC50 associated with CC(C)(C)OC(=O)N1CCC2(CCN(c3ncnc4cc(C(N)=O)sc34)CC2)C1 [Compound 184]
(A) < 1000 nM

(Q) Request the reported IC50 associated with NC(=O)c1cc2ncnc(N3CCN(CCN4CCCC4)CC3)c2o1 [Compound 92]
(A) < 1000 nM

(Q) Request the reported IC50 associated with NC(=O)c1cc2ncnc(N3CCC(CN4CCCC4)CC3)c2o1 [Compound 90]
(A) 1000 to 10000 nM

(Q) Request the reported IC50 associated with NC(=O)c1cc2ncnc(N3CCC(CCNC(=O)C4CCCC4)CC3)c2o1 [Compound 88]
(A) < 1000 nM

(Q) Request the reported IC50 associated with NCCC1CCN(c2ncnc3ccsc23)CC1 [Compound 188, 2,2,2-trifluoroacetate]
(A) 1000 to 10000 nM

(Q) Request the reported IC50 associated with NCCNC(=O)c1cccc(C(=O)NCCN2CCN(c3ncnc4cc(C(N)=O)sc34)CC2)c1 [Compound 127]
(A) < 1000 nM

(Q) Request the reported IC50 associated with CC(C1CCN(c2ncnc3cc(C(N)=O)sc23)CC1)N1CCCC1 (stereo not drawn) [Compound 183]
(A) < 1000 nM

(Q) Request the reported IC50 associated with Cc1nc(N2CCN(CCNC(=O)C3CCCC3)CC2)c2sc(C(N)=O)cc2n1 [Compound 157]
(A) < 1000 nM

(Q) Request the reported IC50 associated with NCCCC1CCN(c2ncnc3cc(C(N)=O)sc23)CC1 [Compound 77, 2,2,2-trifluoroacetate]
(A) < 1000 nM

(Q) Request the reported IC50 associated with CC(C)(C)OC(=O)NCC1CCN(c2ncnc3cc(C(N)=O)sc23)CC1 [Compound 57]
(A) 1000 to 10000 nM

(Q) Request the reported IC50 associated with CCNC(=O)c1ccc(C(=O)NCCC2CCN(c3ncnc4cc(C(=O)NCC)sc34)CC2)s1 [Compound 194]
(A) 1000 to 10000 nM

(Q) Request the reported IC50 associated with COCCC1CCN(c2nc(C)nc3cc(C(N)=O)sc23)CC1 [Compound 148]
(A) 1000 to 10000 nM

(Q) Request the reported IC50 associated with Cc1nc(N2CCC(CCNC(=O)C(C)(C)C)CC2)c2sc(C(N)=O)cc2n1 [Compound 159]
(A) < 1000 nM

(Q) Request the reported IC50 associated with NC(=O)c1cc2ncnc(N3CCC(CCN4CCCC4)CC3)c2o1 [Compound 87]
(A) < 1000 nM

(Q) Request the reported IC50 associated with NCCC1CCN(c2nccc3cc(C(N)=O)sc23)CC1 [Compound 175]
(A) > 10000 nM

(Q) Request the reported IC50 associated with NC(=O)c1cc2ncnc(N3CCC(C(=O)N4CCCC4)CC3)c2s1 [Compound 182]
(A) 1000 to 10000 nM

(Q) Request the reported IC50 associated with CC(C)(C)C(=O)NCCC1CCN(c2ncc(Br)c3cc(C(N)=O)sc23)CC1 [Compound 112]
(A) 1000 to 10000 nM
